# Tested on: NO production in RAW cells
# ASSAY SUMMARY: Inhibition of NO production in RAW cells stimulated with interferon-γ
# Type: cell-based, mouse
# SETTINGS: Table 4; C-8a functionalized TBE-10 analogs; stimulated with interferon-γ; read-out: IC50 (nM), NO production in RAW cells
ASSAY READOUT: IC50 (nM)
State the answer as a number, implicitly in nM.

### Prompt What measured IC50 goes with CC1(C)CC[C@]2(C(=O)O)CC[C@]3(C)[C@H](C(=O)C=C4[C@@]5(C)C=C(C#N)C(=O)C(C)(C)[C@@H]5CC[C@]43C)[C@@H]2C1 [CDDO, reference compound] ?
### Response 6
